# system: human recombinant adrenergic α2A receptor (Homo sapiens, UniProt P08913)
# Construct: expressed in transfected cells; host or cells: insect Sf9 cells
# Sequence (P08913 1-465): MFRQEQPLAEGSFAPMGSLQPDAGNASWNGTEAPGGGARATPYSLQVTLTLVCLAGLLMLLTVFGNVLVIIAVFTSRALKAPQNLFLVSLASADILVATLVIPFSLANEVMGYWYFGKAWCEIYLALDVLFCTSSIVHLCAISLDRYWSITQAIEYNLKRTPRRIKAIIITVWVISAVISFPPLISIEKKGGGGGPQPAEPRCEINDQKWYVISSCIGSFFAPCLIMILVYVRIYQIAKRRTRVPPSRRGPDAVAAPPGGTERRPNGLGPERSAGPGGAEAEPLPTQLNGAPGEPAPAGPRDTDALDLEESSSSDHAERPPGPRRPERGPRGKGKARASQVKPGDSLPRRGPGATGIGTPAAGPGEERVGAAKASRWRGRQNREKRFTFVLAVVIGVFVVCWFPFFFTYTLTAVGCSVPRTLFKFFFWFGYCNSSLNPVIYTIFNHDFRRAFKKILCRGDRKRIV
# protocol: Adrenergic α2A radioligand binding ([3H]MK-912)
# run_parameters: 1 h; read-out: Percent Inhibition of ligand binding Adrenergic (1 μM ligand conc.) α2A
Think of 80% as a floor: if inhibition at 1 µM stands on it or above, it is TRUE; beneath it, FALSE.

[[record]]
molecule = "COC(=O)Cn1c2c(c3cc(Cl)ccc31)CCN(C)C2"
assigned_category = "FALSE"

[[record]]
molecule = "CN1CCc2c(n(CC(=O)N3CCCC3)c3ccc(Cl)cc23)C1"
assigned_category = "FALSE"

[[record]]
molecule = "CN1CCc2c(n(CCC3CCCC3)c3ccc(Cl)cc23)C1"
assigned_category = "TRUE"

[[record]]
molecule = "Cc1ccc2c(c1)c1c(n2CC(O)c2ccccc2)CN(C)CC1 (stereo not drawn)"
assigned_category = "TRUE"

[[record]]
molecule = "C/C(=C/n1c2c(c3cc(C)ccc31)CCN(C)C2C)c1ccccc1F (stereo not drawn)"
assigned_category = "TRUE"

[[record]]
molecule = "Cc1ccc(C(O)Cn2c3c(c4cc(C)ccc42)CCN(C)C3)cc1 (stereo not drawn)"
assigned_category = "TRUE"

[[record]]
molecule = "CCC1c2c(c3cc(C)ccc3n2C#Cc2ccc(Cl)cc2)CCN1C (stereo not drawn)"
assigned_category = "FALSE"

[[record]]
molecule = "CCC1c2c(c3cc(Cl)ccc3n2CCc2ccc(F)cc2)CCN1C (stereo not drawn)"
assigned_category = "TRUE"

[[record]]
molecule = "C/C(=C\\n1c2c(c3cc(C)ccc31)CCN(C)C2C)c1ccc(Cl)cc1 (stereo not drawn)"
assigned_category = "FALSE"

[[record]]
molecule = "CN1CCc2c(n(CC(=O)NC3CCCCC3)c3ccc(Cl)cc23)C1"
assigned_category = "FALSE"

[[record]]
molecule = "Cc1ccc2c(c1)c1c(n2CC(C)(O)c2ccc(F)cc2)CN(C)CC1 (stereo not drawn)"
assigned_category = "TRUE"

[[record]]
molecule = "CN1CCc2c(n(CCN3CCCCC3)c3ccc(Cl)cc23)C1"
assigned_category = "FALSE"

[[record]]
molecule = "C/C(=C/n1c2c(c3cc(Cl)ccc31)CCN(C)C2C)c1ccccc1F (stereo not drawn)"
assigned_category = "TRUE"

[[record]]
molecule = "CN1CCc2c(n(CC(=O)N(C)C3CCCCC3)c3ccc(Cl)cc23)C1"
assigned_category = "FALSE"

[[record]]
molecule = "CN1CCc2c(n(CC(=O)N(C)C)c3ccc(Cl)cc23)C1"
assigned_category = "FALSE"


Origin of values: patent US9260429B2
